# study target: T1, CD226 (Homo sapiens (Human), UniProt Q15762 19-336)
# T1 sequence: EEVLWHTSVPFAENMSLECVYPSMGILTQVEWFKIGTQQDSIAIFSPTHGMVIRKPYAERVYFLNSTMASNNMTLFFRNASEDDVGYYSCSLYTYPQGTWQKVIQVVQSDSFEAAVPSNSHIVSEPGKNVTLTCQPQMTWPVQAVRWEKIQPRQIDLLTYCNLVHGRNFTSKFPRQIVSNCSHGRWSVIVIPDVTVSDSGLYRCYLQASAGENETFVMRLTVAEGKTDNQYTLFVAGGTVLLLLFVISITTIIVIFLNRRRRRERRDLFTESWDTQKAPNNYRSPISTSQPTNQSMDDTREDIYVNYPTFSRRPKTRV
# method: flow cytometry, Fc fusion at 100 nM, CD226-transfected cells
Please use yes (1) for MFI at 100 nM under 2000 MFI and no (0) for everything else, ties included.

Would you please look over these solved cases?
binder	group label
variant CD155 IgV-Fc S42N/S52Q/Q62F (Fc fusion, not shown: a dimerising Fc or GST) WPPPGTGDVVVQAPTQVPGFLGDSVTLPCYLQVPNMEVTHVNQLTWARHGEQGSMAVFHQTFGPSYSESKRLEFVAARLGAELRNASLRMFGLRVEDEGNYTCLFVTFPQGSRSVDIWLRVL	no (0)
variant CD155 IgV-Fc S42C/S52L (Fc fusion, not shown: a dimerising Fc or GST) WPPPGTGDVVVQAPTQVPGFLGDSVTLPCYLQVPNMEVTHVCQLTWARHGELGSMAVFHQTQGPSYSESKRLEFVAARLGAELRNASLRMFGLRVEDEGNYTCLFVTFPQGSRSVDIWLRVL	no (0)
variant CD155 IgV-Fc S42W (Fc fusion, not shown: a dimerising Fc or GST) WPPPGTGDVVVQAPTQVPGFLGDSVTLPCYLQVPNMEVTHVWQLTWARHGESGSMAVFHQTQGPSYSESKRLEFVAARLGAELRNASLRMFGLRVEDEGNYTCLFVTFPQGSRSVDIWLRVL	no (0)
variant CD155 IgV-Fc S42W/S52R/Q62Y/L104Q (Fc fusion, not shown: a dimerising Fc or GST) WPPPGTGDVVVQAPTQVPGFLGDSVTLPCYLQVPNMEVTHVWQLTWARHGERGSMAVFHQTYGPSYSESKRLEFVAARLGAELRNASLRMFGLRVEDEGNYTCQFVTFPQGSRSVDIWLRVL	no (0)
variant CD155 IgV-Fc S42A/S52Q/L104Q/G111R (Fc fusion, not shown: a dimerising Fc or GST) WPPPGTGDVVVQAPTQVPGFLGDSVTLPCYLQVPNMEVTHVAQLTWARHGEQGSMAVFHQTQGPSYSESKRLEFVAARLGAELRNASLRMFGLRVEDEGNYTCQFVTFPQRSRSVDIWLRVL	no (0)

Lab note: MFI at 100 nM threshold 2000 MFI. Does this binder come in strictly under it? variant CD155 IgV-Fc S42A/S52L/L104E/G111R (Fc fusion, not shown: a dimerising Fc or GST) WPPPGTGDVVVQAPTQVPGFLGDSVTLPCYLQVPNMEVTHVAQLTWARHGELGSMAVFHQTQGPSYSESKRLEFVAARLGAELRNASLRMFGLRVEDEGNYTCEFVTFPQRSRSVDIWLRVL
yes (1)

Lab note: MFI at 100 nM threshold 2000 MFI. Does this binder come in strictly under it? variant CD155 IgV-Fc S42W/S52Q/V57L/Q62Y (Fc fusion, not shown: a dimerising Fc or GST) WPPPGTGDVVVQAPTQVPGFLGDSVTLPCYLQVPNMEVTHVWQLTWARHGEQGSMALFHQTYGPSYSESKRLEFVAARLGAELRNASLRMFGLRVEDEGNYTCLFVTFPQGSRSVDIWLRVL
no (0)

Lab note: MFI at 100 nM threshold 2000 MFI. Does this binder come in strictly under it? variant CD155 IgV-Fc S52M (Fc fusion, not shown: a dimerising Fc or GST) WPPPGTGDVVVQAPTQVPGFLGDSVTLPCYLQVPNMEVTHVSQLTWARHGEMGSMAVFHQTQGPSYSESKRLEFVAARLGAELRNASLRMFGLRVEDEGNYTCLFVTFPQGSRSVDIWLRVL
yes (1)

Lab note: MFI at 100 nM threshold 2000 MFI. Does this binder come in strictly under it? variant CD155 IgV-Fc S52L (Fc fusion, not shown: a dimerising Fc or GST) WPPPGTGDVVVQAPTQVPGFLGDSVTLPCYLQVPNMEVTHVSQLTWARHGELGSMAVFHQTQGPSYSESKRLEFVAARLGAELRNASLRMFGLRVEDEGNYTCLFVTFPQGSRSVDIWLRVL
no (0)

Lab note: MFI at 100 nM threshold 2000 MFI. Does this binder come in strictly under it? variant CD155 IgV-Fc S42L/S52Q/L104E (Fc fusion, not shown: a dimerising Fc or GST) WPPPGTGDVVVQAPTQVPGFLGDSVTLPCYLQVPNMEVTHVLQLTWARHGEQGSMAVFHQTQGPSYSESKRLEFVAARLGAELRNASLRMFGLRVEDEGNYTCEFVTFPQGSRSVDIWLRVL
no (0)

Lab note: MFI at 100 nM threshold 2000 MFI. Does this binder come in strictly under it? variant CD155 IgV-Fc S42N/L104Q/G111R (Fc fusion, not shown: a dimerising Fc or GST) WPPPGTGDVVVQAPTQVPGFLGDSVTLPCYLQVPNMEVTHVNQLTWARHGESGSMAVFHQTQGPSYSESKRLEFVAARLGAELRNASLRMFGLRVEDEGNYTCQFVTFPQRSRSVDIWLRVL
no (0)
